B1: 6YSE (parent)
chain: HERALMVNRLQKLTRMLRVHPDPKWKQEQQELIKRLK

# Variants of: B1
# ASSAY_DETAILS: folding stability dG (cDNA display proteolysis); higher = more stable
# EXPERIMENTAL_PARAMETERS: PBS, room temperature
Each entry below lists one item and its recorded folding stability dG value.
EXPERIMENTAL_READOUT: folding stability dG (kcal/mol)

{"columns": ["RECORD_SEQUENCE", "EXPERIMENTAL_READOUT", "ASSAY_RESULT"],
 "data": [
  ["HETALMVNRLQKLTRMLRVHPDPKWKQEQQELIKRLK [R3T]", "folding stability dG", 1.06],
  ["HERALMVNRLQKLTRMLRVHPDPKWKQEQQELGKRLK [I33G]", "folding stability dG", -0.702],
  ["HERALTVNRLQKLTRMLRVHPDPKWKQEQQELIKRLK [M6T]", "folding stability dG", 0.188],
  ["HARALMVNRLQKLTRMLRVHPDPKWKQEQQELIKRLK [E2A]", "folding stability dG", 1.14],
  ["HERALMVNRLQKLTRMLRVHPDPKWKIEQQELIKRLK [Q27I]", "folding stability dG", 1.22],
  ["HERALMVNRLQKLTRMLRVHPDPKWKQEEQELIKRLK [Q29E]", "folding stability dG", 0.805],
  ["HERALMVNRLQKLTRMLRVHPDDKWKQEQQELIKRLK [P23D]", "folding stability dG", 0.676],
  ["HERELMVNRLQKLTRMLRVHPDPKWKQEQQELIKRLK [A4E]", "folding stability dG", 1.35],
  ["HERALMVNRLQKLTRMLRVHPDPKWYQEQQELIKRLK [K26Y]", "folding stability dG", 1.17],
  ["HERALMVNRLQKLTRMLRVHPDPKWKQEQQRLIKRLK [E31R]", "folding stability dG", 1.15],
  ["HERALMVRRLQKLTRMLRVHPDPKWKQEQQELIKRLK [N8R]", "folding stability dG", 2.01],
  ["HEDALMVNRLQKLTRMLRVHPDPKWKQEQQELIKRLK [R3D]", "folding stability dG", 0.418],
  ["HERALMVNRLQKLTRMLRVHPDPKWKQEQQELIKGLK [R35G]", "folding stability dG", -0.14],
  ["QERALMVNRLQKLTRMLRVHPDPKWKQEQQELIKRLK [H1Q]", "folding stability dG", 1.38],
  ["HERALMVNRLQKLTRMLRVHPDPWWKQEQQELIKRLK [K24W]", "folding stability dG", 0.63],
  ["HERALMVNRLQKLTRMLRVHPDPKWKQEQQELIKRLV [K37V]", "folding stability dG", 0.95],
  ["HERALMVNRLQKCTRMLRVHPDPKWKQEQQELIKRLK [L13C]", "folding stability dG", -0.58],
  ["HERALMVNRFQKLTRMLRVHPDPKWKQEQQELIKRLK [L10F]", "folding stability dG", -0.248],
  ["HERALMVNRLQKLTRMLRVHPDPKWKQERQELIKRLK [Q29R]", "folding stability dG", 1.47],
  ["HERALMVNRLQKLTRMCRVHPDPKWKQEQQELIKRLK [L17C]", "folding stability dG", -0.743],
  ["HERALMVNRLQKLTRMLRVHPRPKWKQEQQELIKRLK [D22R]", "folding stability dG", 1.06],
  ["HERALMVNRLQKLTRMLRVHPDPKYKQEQQELIKRLK [W25Y]", "folding stability dG", 1.32]
]}

Value source: the MegaScale stability set (Tsuboyama et al. 2023)
